- System: DNA
- protocolSummary: Binding affinity to calf thymus DNA at pH 7.0 at 20 uM after 18 hrs by thermal denaturation assay
- Type: nucleic-acid assay
- reportedConditions: Bos taurus
// classify: if (deltaTm < 2 °C) class 1 else class 0

Ask | Does the reported deltaTm of the following compound sit strictly below 2 °C? COc1cc(/C=C/C(=O)c2ccccc2O)ccc1OCCCCOc1cc2c(cc1OC)C(=O)N1CCC[C@H]1C=N2
Reply | class 0

----------
- Tested on: DNA
- protocolSummary: Binding affinity to calf thymus DNA at pH 7.0 at 20 uM by thermal denaturation assay
- Type: nucleic-acid assay
- reportedConditions: Bos taurus
observable: deltaTm (°C)
// note: answer is a bare numeric in °C

See these solved cases before continuing.
[[record]]
compoundstring = "COc1cc(/C=C/C(=O)c2ccccc2O)ccc1OCCCCOc1cc2c(cc1OC)C(=O)N1CCC[C@H]1C(=O)N2"
targetundertest = "DNA"
observed = 1

[[record]]
compoundstring = "COc1cc2c(cc1O)N=C[C@@H]1CCCN1C2=O"
targetundertest = "DNA"
observed = 0.3

[[record]]
compoundstring = "COc1cc(/C=C/C(=O)c2ccccc2O)ccc1OCCCOc1cc2c(cc1OC)C(=O)N1CCC[C@H]1C(=O)N2"
targetundertest = "DNA"
observed = 2

[[record]]
compoundstring = "COc1cc(/C=C/C(=O)c2ccccc2O)ccc1OCCCCCOc1cc2c(cc1OC)C(=O)N1CCC[C@H]1C=N2"
targetundertest = "DNA"
observed = 3.1

[[record]]
compoundstring = "COc1cc(/C=C/C(=O)c2ccccc2O)ccc1OCCCOc1cc2c(cc1OC)C(=O)N1CCC[C@H]1C=N2"
targetundertest = "DNA"
observed = 5


Ask | What reported deltaTm corresponds to COc1cc(/C=C/C(=O)c2ccccc2O)ccc1OCCCCCOc1cc2c(cc1OC)C(=O)N1CCC[C@H]1C(=O)N2 on DNA?
Reply | 7.1

Ask | Try this compound too: COc1cc(/C=C/C(=O)c2ccccc2O)ccc1OCCCCOc1cc2c(cc1OC)C(=O)N1CCC[C@H]1C=N2
Reply | 1.7

Just for reference, ChEMBL document CHEMBL1144686 is where these values come from.
